# assayProtocol: Caco-2 cell permeability
# Format: in vitro ADME
# settings: human, Caco-2, pH 7.4

compound	efflux ratio at 120 min
COC(=O)c1ccccc1-c1c2ccc(=N)cc-2oc2cc(N)ccc12 [rhodamine 123]	7.3

###

# System: VREfm
# assayProtocol: MIC by broth microdilution against E. faecium
# Assay type: cell-based, Enterococcus faecium
# settings: compared with analogue 1

compound	fold loss in activity against E. faecium
Cl.NCCc1ccc(Oc2ccc(-c3noc(-c4ccc(O)cc4)n3)cc2)cc1 [15e]	2 fold
Cl.NCc1ccccc1Oc1ccc(-c2noc(-c3ccc(O)cc3)n2)cc1 [15a]	4 fold
Cl.NCCc1ccccc1Oc1ccc(-c2noc(-c3ccc(O)cc3)n2)cc1 [15b]	4 fold
Cl.NCc1ccc(Oc2ccc(-c3noc(-c4ccc(O)cc4)n3)cc2)cc1 [15d]	2 fold
